Origin of measurements: patent US11319303B2

What IC50 was measured for each of the following?
- Target Of Assay: LC3B (Homo sapiens)
- Test: Fluorescence Polarization (FP) Assay: displacement of FITC-labeled peptide from GST-LC3B
- Assay type: binding
- Condition Description: Fluorescence Polarization assay; GST-LC3B 180 nM, FITC-labeled peptide 18 nM, 25° C.; read-out: IC50
Where a name gives a salt, the structure may show the parent alone.

Count: 6. Required value per item: IC50.
1. O=C1CC(c2cccc3[nH]cc(C4CC4)c23)CC(=O)C1=CNCCN1CCN(CCO)CC1 (stereo not drawn) [Compound 185]
2. CN(C)CCNC=C1C(=O)CC(c2ccc([N+](=O)[O-])cc2)CC1=O (stereo not drawn) [Compound 340]
3. CN(C)CCNC=C1C(=O)CC(c2ccc(F)cc2Cl)CC1=O (stereo not drawn) [Compound 370]
4. NCCNC=C1C(=O)CC(c2ccccc2)CC1=O (stereo not drawn) [Compound 175, hydrochloride]
5. COc1cccc(OC)c1C1CC(=O)C(=CO)C(=O)C1 (stereo not drawn) [Compound 441]
6. CN(C)C=C1C(=O)CC(c2cccnc2)CC1=O (stereo not drawn) [Compound 257]

Reply:
1: < 3 µM; 2: < 3 µM; 3: < 3 µM; 4: 3 to 15 µM; 5: 15 to 100 µM; 6: 15 to 100 µM

For every listed record, write down its IC50.
1. N#Cc1ccc(C2CC(=O)C(=CO)C(=O)C2)cc1 (stereo not drawn) [Compound 425]
2. O=C1CC(c2ccccc2)CC(=O)C1=CO (stereo not drawn) [Compound 444]
3. C=C(C)C(=O)N1CCN(CCNC=C2C(=O)CC(c3ccc(C)cc3)CC2=O)CC1 (stereo not drawn) [Compound 233]

Reply:
1. 15 to 100 µM
2. 3 to 15 µM
3. < 3 µM
